src = patent US20210403579A1

Reported kon is given for each of the following binders.
Target: T1, Human ST2 (human, UniProt Q01638 19-328, limits assumed)
T1 construct: also called human ST2 protein; Interleukin 1 receptor-like 1
T1 sequence (looked up): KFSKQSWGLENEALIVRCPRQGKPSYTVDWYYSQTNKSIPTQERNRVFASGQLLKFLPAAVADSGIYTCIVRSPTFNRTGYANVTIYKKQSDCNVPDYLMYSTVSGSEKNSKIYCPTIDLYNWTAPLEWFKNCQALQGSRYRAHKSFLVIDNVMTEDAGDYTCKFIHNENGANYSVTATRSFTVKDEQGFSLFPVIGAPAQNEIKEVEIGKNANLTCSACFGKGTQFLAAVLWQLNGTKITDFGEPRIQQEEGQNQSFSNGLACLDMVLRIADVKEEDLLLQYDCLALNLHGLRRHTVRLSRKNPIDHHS
Test: SPR (Carterra), antibody immobilized, ST2 analyte
property-name: kon (M⁻¹ s⁻¹)

binder="Human ST2 IgG1 Antibody 19 (antibody, V domains shown, IgG1; also called ST2 Antibody 19) VH: EVQLLESGGGLVQPGGSLRLSCAASGFSFSHAWMSWVRQAPGKGLEWVSVIHSGGSTFYADSVKGRFTISRDNSKNTLYLQMNSLRAEDTAVYYCARIGKGGGFDYWGQGTLVTVSS VL: DIQMTQSPSSLSASVGDRVTITCRASQDIGSWLAWYQQKPGKAPKLLIYAASSLQSGVPSRFSGSGSGTDFTLTISSLQPEDFATYYCQQSYSTPPTFGQGTKVEIKR" property_name=kon readout_number=550000
binder="Human ST2 IgG1 Antibody 29 (antibody, V domains shown, IgG1; also called ST2 Antibody 29) VH: QVQLVQSGAEVKKPGASVKVSCKASGGTFTGYFIHWVRQAPGQGLEWMGWMNPNSGNTGYAQKFQGRVTMTRDTSTSTVYMELSSLRSEDTAMYYCAREGQGVVPVDYWGQGTLVTVSS VL: DIQMTQSPSSLSASVGDRVTITCRASQSISSWLAWYQQKPGKAPKLLIYDATNLETGVPSRFSGSGSGTDFTLTISSLQPEDFATYYCLQDYNYPLTFGQSTKVEIKR" property_name=kon readout_number=14000
binder="Human ST2 IgG1 Antibody 15 (antibody, V domains shown, IgG1; also called ST2 Antibody 15) VH: QVQLVQSGAEVKKPGSSVKVSCKASGGTFSSYAISWVRQAPGQGLEWMGGIIPMFGTTNYAQKFQGRVTITADESTSTAYMELSSLRSEDTAVYYCATVAAAGPNWYFDLWGRGTLVTVSS VL: DIQMTQSPSSLSASVGDRVTITCQASQGISNYLNWYQQKPGKAPKLLIYAASTLQSGVPSRFSGSGSGTDFTLTISSLQPEDFATYYCQQSYSTPPTFGQGTKVEIKR" property_name=kon readout_number=190000
